Test: Sensory test: degree of sweetness compared with sucrose (sugar) solution
Settings: compared with a 4 to 5% sucrose solution
Quantity Kind: Degree of sweetness (multiplying power of sweetness)

>  <Structure String>
N[C@H](C[C@H](Cc1c[nH]c2ccccc12)C(=O)O)C(=O)O

>  <Test Result>
about 200

$$$$
>  <Structure String>
CNC(=O)[C@@](O)(Cc1c[nH]c2ccccc12)C[C@@H](N)C(=O)O

>  <Test Result>
about 200

$$$$

###

half-life values, listed per item
Test: Stability (half life) in aqueous acidic solution, citrate buffer pH 3, 70° C.
Type: physicochemical
Conditions: citrate buffer solution of pH=3, at 70° C.
Peptide text beside a SMILES is read from it.

>  <Compound>
CCNC(=O)[C@@](O)(Cc1c[nH]c2ccccc12)C[C@@H](N)C(=O)O

>  <half-life>
~97 h

$$$$
>  <Compound>
COC(=O)[C@H](Cc1ccccc1)NC(=O)[C@@H](N)CC(=O)O [aspartame, reference compound] (H-Asp-Phe-OMe)

>  <half-life>
~35 h

$$$$
